Each recorded value in this set is attributed to ChEMBL document CHEMBL3588850.

test system: Nucleic Acid; test: Binding affinity to HIV1 TAR RNA bulgeless mutant assessed as association constant at pH 6.8 by ethidium bromide displacement assay based Scatchard analysis method; format: nucleic-acid assay; settings: Human immunodeficiency virus 1
# Lookup of reported K keyed by entry

Solved cases (4 shown):
[
  {
    "CHEMICAL SMILES": "NC[C@@H]1O[C@H](O[C@H]2[C@@H](O)[C@H](O[C@@H]3[C@@H](O)[C@H](N)C[C@H](N)[C@H]3O[C@H]3O[C@H](CN)[C@@H](O)[C@H](O)[C@H]3N)O[C@@H]2Cn2cc(CCCCCCc3cn(C[C@H]4O[C@@H](O[C@@H]5[C@@H](O)[C@H](N)C[C@H](N)[C@H]5O[C@H]5O[C@H](CN)[C@@H](O)[C@H](O)[C@H]5N)[C@H](O)[C@@H]4O[C@H]4O[C@@H](CN)[C@@H](O)[C@H](O)[C@H]4N)nn3)nn2)[C@H](N)[C@@H](O)[C@@H]1O",
    "OBSERVED MEASUREMENT": "6.3 ×10⁷ /M"
  },
  {
    "CHEMICAL SMILES": "NC[C@@H]1O[C@H](O[C@H]2[C@@H](O)[C@H](O[C@@H]3[C@@H](O)[C@H](N)C[C@H](N)[C@H]3O[C@H]3O[C@H](CN)[C@@H](O)[C@H](O)[C@H]3N)O[C@@H]2Cn2cc(CCCCc3cn(C[C@H]4O[C@@H](O[C@@H]5[C@@H](O)[C@H](N)C[C@H](N)[C@H]5O[C@H]5O[C@H](CN)[C@@H](O)[C@H](O)[C@H]5N)[C@H](O)[C@@H]4O[C@H]4O[C@@H](CN)[C@@H](O)[C@H](O)[C@H]4N)nn3)nn2)[C@H](N)[C@@H](O)[C@@H]1O",
    "OBSERVED MEASUREMENT": "2.2 ×10⁷ /M"
  },
  {
    "CHEMICAL SMILES": "C/C(CCc1cn(C[C@H]2O[C@@H](O[C@@H]3[C@@H](O)[C@H](N)C[C@H](N)[C@H]3O[C@H]3O[C@H](CN)[C@@H](O)[C@H](O)[C@H]3N)[C@H](O)[C@@H]2O[C@H]2O[C@@H](CN)[C@@H](O)[C@H](O)[C@H]2N)nn1)=C(/C)CCc1cn(C[C@H]2O[C@@H](O[C@@H]3[C@@H](O)[C@H](N)C[C@H](N)[C@H]3O[C@H]3O[C@H](CN)[C@@H](O)[C@H](O)[C@H]3N)[C@H](O)[C@@H]2O[C@H]2O[C@@H](CN)[C@@H](O)[C@H](O)[C@H]2N)nn1",
    "OBSERVED MEASUREMENT": "3.6 ×10⁷ /M"
  },
  {
    "CHEMICAL SMILES": "NC[C@@H]1O[C@H](O[C@H]2[C@@H](O)[C@H](O[C@@H]3[C@@H](O)[C@H](N)C[C@H](N)[C@H]3O[C@H]3O[C@H](CN)[C@@H](O)[C@H](O)[C@H]3N)O[C@@H]2Cn2cc(CCCc3cn(C[C@H]4O[C@@H](O[C@@H]5[C@@H](O)[C@H](N)C[C@H](N)[C@H]5O[C@H]5O[C@H](CN)[C@@H](O)[C@H](O)[C@H]5N)[C@H](O)[C@@H]4O[C@H]4O[C@@H](CN)[C@@H](O)[C@H](O)[C@H]4N)nn3)nn2)[C@H](N)[C@@H](O)[C@@H]1O",
    "OBSERVED MEASUREMENT": "8.9 ×10⁷ /M"
  }
]

Okay, now this compound:
Summary for this compound, `NC[C@@H]1O[C@H](O[C@H]2[C@@H](O)[C@H](O[C@@H]3[C@@H](O)[C@H](N)C[C@H](N)[C@H]3O[C@H]3O[C@H](CN)[C@@H](O)[C@H](O)[C@H]3N)O[C@@H]2Cn2cc(COCCCCCCCCOCc3cn(C[C@H]4O[C@@H](O[C@@H]5[C@@H](O)[C@H](N)C[C@H](N)[C@H]5O[C@H]5O[C@H](CN)[C@@H](O)[C@H](O)[C@H]5N)[C@H](O)[C@@H]4O[C@H]4O[C@@H](CN)[C@@H](O)[C@H](O)[C@H]4N)nn3)nn2)[C@H](N)[C@@H](O)[C@@H]1O` : K is 6.8 ×10⁷ /M
